Source listed as ChEMBL document CHEMBL4330087.

Experiment: Displacement of F-NEO from human mitochondrial rRNA-A site C1410U mutant after 10 to 20 mins by fluorescence assay
pIC50: recorded values
As a rule, pIC50 stands for the negative log10 of the concentration, concentration in M.

Record excerpt, results attached:
NC[C@@H]1O[C@H](O[C@H]2[C@@H](O)[C@H](O[C@@H]3[C@@H](O)[C@H](N)C[C@H](N)[C@H]3O[C@H]3O[C@H](CN)[C@@H](O)[C@H](O)[C@H]3N)O[C@@H]2CNC(=O)CCc2ccc3ccc4cccc5ccc2c3c45)[C@H](N)[C@@H](O)[C@@H]1O    6.48
NC[C@@H]1O[C@H](O[C@H]2[C@@H](O)[C@H](O[C@@H]3[C@@H](O)[C@H](N)C[C@H](N)[C@H]3O[C@H]3O[C@H](CN)[C@@H](O)[C@H](O)[C@H]3N)O[C@@H]2CSCCNC(=O)CCc2ccc3ccc4cccc5ccc2c3c45)[C@H](N)[C@@H](O)[C@@H]1O    6.83
NC[C@@H]1O[C@H](O[C@H]2[C@@H](O)[C@H](O[C@@H]3[C@@H](O)[C@H](N)C[C@H](N)[C@H]3O[C@H]3O[C@H](CN)[C@@H](O)[C@H](O)[C@H]3N)O[C@@H]2CSCCNC(=O)CCCc2ccc3ccc4cccc5ccc2c3c45)[C@H](N)[C@@H](O)[C@@H]1O    6.90
NC[C@@H]1O[C@H](O[C@H]2[C@@H](O)[C@H](O[C@@H]3[C@@H](O)[C@H](N)C[C@H](N)[C@H]3O[C@H]3O[C@H](CN)[C@@H](O)[C@H](O)[C@H]3N)O[C@@H]2CNC(=O)CCCc2ccc3ccc4cccc5ccc2c3c45)[C@H](N)[C@@H](O)[C@@H]1O    6.83
NC[C@@H]1O[C@H](O[C@H]2[C@@H](O)[C@H](O[C@@H]3[C@@H](O)[C@H](N)C[C@H](N)[C@H]3O[C@H]3O[C@H](CN)[C@@H](O)[C@H](O)[C@H]3N)O[C@@H]2CNC(=O)Cc2ccc3ccc4cccc5ccc2c3c45)[C@H](N)[C@@H](O)[C@@H]1O    6.56

Request: Consider the compound NC[C@@H]1O[C@H](O[C@H]2[C@@H](O)[C@H](O[C@@H]3[C@@H](O)[C@H](N)C[C@H](N)[C@H]3O[C@H]3O[C@H](CN)[C@@H](O)[C@H](O)[C@H]3N)O[C@@H]2CSCCNC(=O)Cc2ccc3ccc4cccc5ccc2c3c45)[C@H](N)[C@@H](O)[C@@H]1O and give its recorded pIC50.
Result: 7.15

Request: Retrieve pIC50 measured for NC[C@@H]1O[C@H](O[C@H]2[C@@H](O)[C@H](O[C@@H]3[C@@H](O)[C@H](N)C[C@H](N)[C@H]3O[C@H]3O[C@H](CN)[C@@H](O)[C@H](O)[C@H]3N)O[C@@H]2CSCCNC(=S)NCCCCCCNC(=O)CCCc2ccc3ccc4cccc5ccc2c3c45)[C@H](N)[C@@H](O)[C@@H]1O and print it.
Result: 6.74
